assay: CREB reporter modulators without forskolin, primary screen, cell-based, PC12, CRE-LacZ reporter, unstimulated (AID 1145); settings: no forskolin, luminescence, 4.5 h, higher = more signal, called active from +8 up or from −8 down
assay_metric: z-score
Enter a number only.

The recorded z-score for CC(=O)OC[C@H]1O[C@H](CC=NO[C@@H](C)c2cc(-c3c(C)cc(C)cc3C)no2)C=C[C@@H]1OC(C)=O is 0.173

The recorded z-score for CO[C@@H]1[C@H](O)CO[C@H]1C=Cc1ccccc1 is -0.164

The recorded z-score for CCOC(=O)[C@H](Cc1ccccc1)NC(=O)CCC1CC(OC(=O)NCc2ccc3c(c2)OCO3)CC2(CCCC(COC(=O)NCCc3ccc(Cl)cc3)O2)O1 (some centres not stated) is -0.0696

The recorded z-score for O=C(NN=C1C[C@@H](O)[C@@H](O)[C@@H]2[C@@H]3C(=O)N(c4ccc(F)cc4F)C(=O)[C@@H]3CC[C@H]12)OCc1ccccc1 is -0.299

The recorded z-score for C#CCCCON=C1C[C@@H](O)[C@@H](O)[C@@H]2[C@@H]3C(=O)N(C[C@@H]4CCCO4)C(=O)[C@@H]3CC[C@@H]12 is 0.0687

The recorded z-score for C=C(C)C(=O)OC[C@H]1CN2[C@@H](CC[C@@H](C)[C@@H]2c2ccc(Br)cc2)C(=O)O1 is -0.654

The recorded z-score for O=C1C[C@@H](O)[C@@H](O)[C@@H]2[C@@H]3C(=O)N(c4ccc(F)cc4F)C(=O)[C@@H]3CC[C@H]12 is 0.064

###

system: Human papillomavirus type 1a protein E7 (residues 44-93); assay: HPV1a E7 fragment binders on microarrays, primary screen, biochemical, small-molecule microarray, residues 44-93, 635 nm fluorescence (AID 1108); conditions: small-molecule microarray binding, fluorescence 635 nm; higher = more signal;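 note: E7 fragment applied at 1 µg/mL in TBST for 1 h at 4 C; score combines spot fluorescence with its signal to noise ratio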
Parameter threshold = 0.7. Response is yes when composite z-score meets or exceeds it, else no.

Kindly determine if composite z-score recorded for COc1ccc2c(c1)O[C@@H](c1cccc(C(F)(F)F)c1)[C@H](O)C2=O is above or exactly 0.7. no

Kindly determine if composite z-score recorded for CC(=O)OC[C@H]1O[C@@H](ON=C(C)CCN2CCCCc3nc(C)c(C)cc32)[C@H](OC(C)=O)[C@@H](OC(C)=O)[C@@H]1OC(C)=O is above or exactly 0.7. yes

Kindly determine if composite z-score recorded for CCOC(=O)[C@H](CC(C)C)NC(=O)CCC1CC(OC(=O)NCCc2ccc(F)cc2)CC2(CCCC(COC(=O)NCc3cccc4ccccc34)O2)O1 (stereo partly specified) is above or exactly 0.7. no

Kindly determine if composite z-score recorded for O=C1C2=CC[C@H]3C(=O)N(C4CCCCC4)C(=O)[C@H]3[C@H]2[C@H](O)[C@@H]2O[C@H]12 is above or exactly 0.7. no

Kindly determine if composite z-score recorded for COC(=O)CC=C[C@@H](C)[C@@H](C=NOC(C)CN1CCCCc2nc(C)c(C)cc21)NS(=O)(=O)c1ccc(C)cc1 (stereo partly specified) is above or exactly 0.7. no

Kindly determine if composite z-score recorded for COc1ccc(-c2cnnc(CCCn3ccnc3-c3ccccc3)n2)cc1 is above or exactly 0.7. no

Kindly determine if composite z-score recorded for COC(OC)[C@@H](C)[C@H](OC)[C@@H](C)[C@H](OC)c1ccccc1 is above or exactly 0.7. no

Kindly determine if composite z-score recorded for O=C1C2=CC[C@H]3C(=O)N(c4ccc(F)cc4F)C(=O)[C@H]3[C@H]2[C@H](O)[C@@H]2O[C@H]12 is above or exactly 0.7. no

Kindly determine if composite z-score recorded for C#CCCCON=C1C[C@@H](O)[C@@H](O)[C@@H]2[C@@H]3C(=O)N(CC)C(=O)[C@@H]3CC[C@H]12 is above or exactly 0.7. no

Kindly determine if composite z-score recorded for COc1ccc(O[C@H]2C=C[C@@H](c3ccccc3)O[C@@H]2CON=C(C)CCN2CCCc3nc(C)c(C)cc32)cc1 is above or exactly 0.7. yes

Kindly determine if composite z-score recorded for CCN1C(=O)[C@H]2[C@H]3[C@H](O)[C@H](O)CC(=NO[C@@H](C)c4cc(-c5c(C)cc(C)cc5C)no4)[C@@H]3CC[C@H]2C1=O is above or exactly 0.7. yes

Kindly determine if composite z-score recorded for C[C@H]1CC[C@@H](C(=O)O)N[C@@H]1c1ccc(C#Cc2ccccc2)cc1 is above or exactly 0.7. yes

Kindly determine if composite z-score recorded for CO[C@@H](C1CCCCC1)[C@@H](C)[C@H](OCc1cccc(Br)c1)[C@@H](C)CO is above or exactly 0.7. no

Kindly determine if composite z-score recorded for COC(=O)CC=C[C@@H](C)[C@@H](C=NOC[C@@H](C)[C@H](OCc1ccccc1)C(C)C)OC is above or exactly 0.7. no

Kindly determine if composite z-score recorded for CC(C)=CCCC(C)=CCON=C1C[C@@H](O)[C@@H](O)[C@@H]2[C@@H]3C(=O)N(c4cccc(Oc5ccccc5)c4)C(=O)[C@@H]3CC[C@H]12 is above or exactly 0.7. yes

Where these numbers come from: PubChem BioAssay
